- study-target: Polyunsaturated fatty acid 5-lipoxygenase (Mus musculus)
- Sequence (whole entry): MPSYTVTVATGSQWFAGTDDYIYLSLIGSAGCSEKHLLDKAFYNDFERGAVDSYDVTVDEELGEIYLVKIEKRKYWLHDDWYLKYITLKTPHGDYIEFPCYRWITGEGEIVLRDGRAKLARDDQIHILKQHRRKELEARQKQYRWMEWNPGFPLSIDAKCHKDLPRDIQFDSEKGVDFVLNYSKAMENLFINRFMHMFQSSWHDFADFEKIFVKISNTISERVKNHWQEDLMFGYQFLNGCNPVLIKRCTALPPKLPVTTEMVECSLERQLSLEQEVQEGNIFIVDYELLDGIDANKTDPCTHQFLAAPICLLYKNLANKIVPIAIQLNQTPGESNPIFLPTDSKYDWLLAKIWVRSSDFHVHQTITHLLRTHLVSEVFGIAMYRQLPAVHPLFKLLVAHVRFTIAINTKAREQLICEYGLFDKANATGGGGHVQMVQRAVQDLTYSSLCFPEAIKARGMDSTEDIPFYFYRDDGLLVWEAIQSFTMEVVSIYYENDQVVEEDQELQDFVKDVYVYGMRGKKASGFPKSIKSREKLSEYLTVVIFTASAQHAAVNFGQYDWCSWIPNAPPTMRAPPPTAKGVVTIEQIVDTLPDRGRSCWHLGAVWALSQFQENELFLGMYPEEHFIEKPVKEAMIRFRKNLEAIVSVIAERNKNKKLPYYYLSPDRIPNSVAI
- protocol-summary: Inhibition of leukotriene formation in A-23187-stimulated mouse whole blood using […] ex vivo, activity expressed as percent of control.
- Type: functional, tissue-based
- Parameters: scale not given: the % may be the effect or the level left
The entries below come with measured Activity values attached.
Hi, when you answer, please include the unit after the number. Thanks!

- compound: "NC(=O)N(O)C1CCCc2c(OCc3ccccc3)cccc21 (centres undefined)"
  Activity: "-44%"
- compound: "NC(=O)N(O)C1CCn2c1cc1cc(Oc3ccccc3)ccc12 (centres undefined)"
  Activity: "-58%"
- compound: "NC(=O)N(O)C1CCn2c1cc1ccccc12 (centres undefined)"
  Activity: "-74%"

[Q] Requested read-out: Activity. Entry: CC(c1cc2ccccc2s1)N(O)C(N)=O (centres undefined)
[A] -78%
